- MEASURED_TARGET: mu-opioid receptor (MOR) (Homo sapiens (Human))
- TEST_DESCRIPTION: cell-based
- RUN_CONDITIONS: co-administrated with naloxone (20 nM); read-out: EC50 of calcium release
pEC50: −log10 of the molar value.
EXPERIMENTAL_READOUT: pEC50

MOLECULE | EXPERIMENTAL_READOUT | READOUT_VALUE
Cc1cc(C(=O)O)ccc1N1C(=O)CSC1c1ccc(F)cc1 (stereo not shown) | pEC50 | 5.89

* * *

- MEASURED_TARGET: mu-opioid receptor (MOR) (Homo sapiens (Human), UniProt P35372)
- Sequence (P35372 whole entry): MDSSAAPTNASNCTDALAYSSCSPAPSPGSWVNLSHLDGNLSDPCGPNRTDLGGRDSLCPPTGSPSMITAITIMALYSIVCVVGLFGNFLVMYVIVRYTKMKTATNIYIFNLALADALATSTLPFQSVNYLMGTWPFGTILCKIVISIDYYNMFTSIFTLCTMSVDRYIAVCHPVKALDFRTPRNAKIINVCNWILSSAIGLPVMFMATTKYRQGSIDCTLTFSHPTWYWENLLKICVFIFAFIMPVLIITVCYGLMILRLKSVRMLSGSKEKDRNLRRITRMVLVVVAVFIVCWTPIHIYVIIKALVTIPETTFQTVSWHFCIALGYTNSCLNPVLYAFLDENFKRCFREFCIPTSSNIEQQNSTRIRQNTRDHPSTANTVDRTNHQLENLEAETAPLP
- TEST_DESCRIPTION: cell-based
- RUN_CONDITIONS: combined with Samidorphan 20 nM; read-out: EC50
EXPERIMENTAL_READOUT: EC50 (µM)

COMPOUND | MEASURED_TARGET | READOUT_VALUE
Cc1cc(C(=O)O)ccc1N1C(=O)CSC1c1ccc(F)cc1 (stereo not shown) | mu-opioid receptor (MOR) (Homo sapiens (Human), UniProt P35372) | 5.27

* * *

- MEASURED_TARGET: mu-opioid receptor (MOR) (Homo sapiens (Human), UniProt P35372)
- TEST_DESCRIPTION: cell-based
- RUN_CONDITIONS: combined with a MOR antagonist; read-out: FLIPR Ca^2+ EC50

COMPOUND | ENDPOINT_UNIT | EC50
Cc1cc(C(=O)O)ccc1N1C(=O)CSC1c1ccc(F)cc1 (stereo not shown) | µM | 1.1

* * *

- MEASURED_TARGET: mu-opioid receptor (MOR) (Homo sapiens (Human), UniProt P35372)
- TEST_DESCRIPTION: cell-based
- RUN_CONDITIONS: combined with Cyprodime hydrochloride 500 nM; read-out: EC50
pEC50: −log10 of the molar value.

COMPOUND | pEC50
Cc1cc(C(=O)O)ccc1N1C(=O)CSC1c1ccc(F)cc1 (stereo not shown) | 5.29

* * *

- MEASURED_TARGET: mu-opioid receptor (MOR) (Homo sapiens (Human), UniProt P35372)
- TEST_DESCRIPTION: cell-based
- RUN_CONDITIONS: combined with Samidorphan 10 nM; read-out: EC50
EXPERIMENTAL_READOUT: EC50

COMPOUND | MEASURED_TARGET | EXPERIMENTAL_READOUT | READOUT_VALUE
Cc1cc(C(=O)O)ccc1N1C(=O)CSC1c1ccc(F)cc1 (stereo not shown) | mu-opioid receptor (MOR) (Homo sapiens (Human), UniProt P35372) | EC50 | 5.53 µM

* * *

- MEASURED_TARGET: mu-opioid receptor (MOR) (Homo sapiens (Human))
- TEST_DESCRIPTION: cell-based
- RUN_CONDITIONS: combined with β-Funaltrexamine hydrochloride 20 nM; read-out: EC50
pEC50: −log10 of the molar value.
EXPERIMENTAL_READOUT: pEC50

COMPOUND | READOUT_VALUE
Cc1cc(C(=O)O)ccc1N1C(=O)CSC1c1ccc(F)cc1 (stereo not shown) | 6.46

* * *

- MEASURED_TARGET: UniProtKB P35372
- TEST_DESCRIPTION: cell-based
- RUN_CONDITIONS: combined with Naltrexone 20 nM; read-out: EC50
pEC50: −log10 of the molar value.

COMPOUND | MEASURED_TARGET | pEC50
Cc1cc(C(=O)O)ccc1N1C(=O)CSC1c1ccc(F)cc1 (stereo not shown) | UniProtKB P35372 | 6.20

* * *

- MEASURED_TARGET: mu-opioid receptor (MOR) (Homo sapiens (Human))
- TEST_DESCRIPTION: cell-based
- RUN_CONDITIONS: combined with Naloxonazine dihydrochloride 20 nM; read-out: EC50
EXPERIMENTAL_READOUT: EC50 (nM)

COMPOUND | MEASURED_TARGET | READOUT_VALUE
Cc1cc(C(=O)O)ccc1N1C(=O)CSC1c1ccc(F)cc1 (stereo not shown) | mu-opioid receptor (MOR) (Homo sapiens (Human)) | 642
